# Study Target: T1, human G-protein-coupled receptor family C group 5 member D (GPRC5D) (human, UniProt Q9NZD1 1-345)
# T1 construct: whole, on cells; also called human GPRC5D protein
# T1 sequence (Q9NZD1 whole entry): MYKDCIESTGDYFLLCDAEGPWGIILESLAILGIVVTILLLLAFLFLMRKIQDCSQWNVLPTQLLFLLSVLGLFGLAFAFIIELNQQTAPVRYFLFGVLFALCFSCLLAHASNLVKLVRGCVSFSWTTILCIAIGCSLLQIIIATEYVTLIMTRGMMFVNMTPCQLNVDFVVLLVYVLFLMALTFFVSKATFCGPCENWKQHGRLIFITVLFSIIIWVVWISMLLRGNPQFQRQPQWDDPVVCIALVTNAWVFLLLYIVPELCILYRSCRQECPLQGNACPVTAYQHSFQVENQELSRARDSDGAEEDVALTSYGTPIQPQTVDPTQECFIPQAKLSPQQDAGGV
# Assay Overview: FACS, CHO-K1/human GPRC5D, chimeric antibody
For each entry below, report its LogEC50 value.
Numbers only.

Enquiry: Please look up its LogEC50: 37B9C4-XI (antibody, V domains shown, also called 37B9C4 (chimeric); 37-XI) VH: EVNLEESGGGLVQPGGSMKLSCVASGFTFSDYWMNWVRQSPEKGLEWVAEIRLKSNNYATHYAESVKGRFTISRDDSKSSVYLQMNNLRAEDTGIYYCTRPLLWFRRYYAMDYWGQGTSVTVSS VL: DIQMTQTTSSLSASLGDRITISCSASQGISNYLNWYQQKPDGTVKLLIYYTSSLHSGVPSRFSGSGSGTDYSLTISNLEPADIATYYCQQYSKLPFTFGSGTKLEIK
Return: 0.249

Hi team, please reply with LogEC50 for each item in this list.
1. 29B2C10 (chimeric) (antibody, V domains shown) VH: EVQLQQSGPELVKPGASMKLSCKASGYSFTGYTMHWVKQSHGENLEWIGLINPYNGGTNYNQKFKGKATLTVDKSSSTAYMELLSLTSEDSAVYYCSRWGLRRAMDYWGQGTSVTVSS VL: DIVMTQSQKFMSTSVGDRVSVTCKASQNVGSNVAWYQQKPGQSPKALIYSASYRYSGVPDRFTGNGSGTDFTLTISNVQSEDLAEYFCQQYYNSPWTFGGGTKLEIK
2. 6G10D9-XI (antibody, V domains shown, also called 6G10D9 (chimeric); 6G1009-X1) VH: QVQLQQSGAELARPGASVKMSCKASGYTFTTYTMHWVKQRPGQGLEWLGYINPSSGYTNYNQKFKDKATLTAGKSSSTAYMQLSSLTSEDSAVYYCASLRSRGYFDYWGQGTTLTVSS VL: DIVMTQSQTFMSTSVGDRVRITCKASQNVGTAVVWYQQKTGQSPRLLIYSASNRYTGVPDRFTGSGSGTDFTLTISNMQSEDLADFFCQQYSSYPYTFGGGTKLEIK
3. 40A5B2 (chimeric) (antibody, V domains shown) VH: EVQLQQSGPELVKPGASVKMSCKASGYTFTRNIMHWVKQKPGQGLEWIGYINPYNAGSKYNEKFKGKATLTSDISSSTAYMELSSLTSEDSAVYYCAREEVYYRYGAWFAYWGHGTLVTVSA VL: DIVLTQSPASLAVSLGQRATISCRASQSVSTSSYSYMHWYQQKPGQPPKLLIKYASNLESGVPARFSGSGSGTDFTLNIHPVEEEDTATYYCQHSWEIPRTFGGGTKLEIK

Return:
1: 0.342; 2: 0.101; 3: 0.344

Enquiry: Please look up its LogEC50: 21C3C11B3 (chimeric) (antibody, V domains shown) VH: QVQLQQSGAELVRPGTSVKVSCKASGYAFINYLIEWIKQRPGQGLEWIGMINPGSGGTNYNEKFKDKATLTADKSSSTAYMQLSSLTSDDSAVYFCARNWDVWGQGTTLTVSS VL: DVVMTQSPLSLPVSLGDQASVSCRSSQSLVHSTGNTYLHWYLQKPGQSPKLLIYKVSNRFSGVPDRFSGSGSGTDFTLKISRVEAEDLGVYFCSQSTHVPWTFGGGTKLEIK
Return: 0.229
